# Protocol summary: chemical genetic growth profiling, strain panel (AID 1159580);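 note: tested at 20 µM; growth read once vehicle control cultures reached saturation at 30 °C; 1 = growth at the plate median or of vehicle wells; lower values mean less growth of the strain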
# Test context: S. cerevisiae deletion strains, growth OD, locus YPL241C, strain CIN2, active compounds read low
Hit rate of the full screen: of about 5,500 compounds, about 2,000 (36%) were called active. Not shown: some 18% with an inconclusive outcome. This is one part of the list.
Measured endpoint: normalized growth
Answer with a number only.

A selection of reference data follows.
Compound	normalized growth
O=S(=O)(NCC1CC1)c1ccc(F)c(Cl)c1	0.99
C[C@]12CCC3C(CC[C@H]4C[C@H](O)CC[C@]34C)C1CC[C@@H]2C(=O)CO (some centres undefined)	1.03
O=C(CN1CCOCC1)Nc1cc(C(F)(F)F)cc(C(F)(F)F)c1	1.07
O=C(Nc1cc(C(F)(F)F)cc(C(F)(F)F)c1)C(c1ccccc1)C1CCCC1 (centres undefined)	1.03
CCN1C[C@@]2(COC)C3[C@@H](OC)[C@H]4[C@@H]1[C@]3(C(OC)C[C@H]2O)C1C[C@@]2(O)[C@H](OC(=O)c3ccccc3)C1[C@]4(OC(C)=O)[C@@H](O)[C@@H]2OC (some centres undefined)	1.02

Let's switch to this compound now.
Input CN[C@@H]1C(OC2[C@H](O[C@H]3[C@H](O)[C@@H](O)[C@H](N=C(N)N)[C@@H](O)[C@@H]3N=C(N)N)OC(C)[C@]2(O)CO)OC(CO)C(O)C1O (some centres undefined) , output reported normalized growth.
0.998
